- system under test: Histamine H3 receptor (Cavia porcellus, UniProt Q9JI35)
- Sequence (Q9JI35 whole entry): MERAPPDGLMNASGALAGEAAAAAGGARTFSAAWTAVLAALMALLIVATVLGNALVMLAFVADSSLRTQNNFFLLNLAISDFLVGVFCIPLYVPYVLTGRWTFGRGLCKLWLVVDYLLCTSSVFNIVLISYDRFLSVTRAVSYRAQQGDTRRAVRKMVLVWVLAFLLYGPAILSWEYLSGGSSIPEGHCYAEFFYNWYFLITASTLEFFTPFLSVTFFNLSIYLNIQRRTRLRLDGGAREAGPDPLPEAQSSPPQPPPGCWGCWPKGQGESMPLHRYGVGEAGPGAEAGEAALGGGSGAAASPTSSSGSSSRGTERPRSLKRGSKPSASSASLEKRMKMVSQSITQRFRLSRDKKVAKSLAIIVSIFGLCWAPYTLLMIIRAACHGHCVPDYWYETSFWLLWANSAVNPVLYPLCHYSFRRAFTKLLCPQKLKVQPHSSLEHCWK
- test summary: Histamine H3 radioligand binding assay, guinea pig cortex ([3H]-R-α-methylhistamine)
- condition info: guinea pig cortex membranes, competition with 1 nM [3H]-R-α-methylhistamine; read-out: pKi (Guinea pig cortex) (converted)
Counter-ions that a name gives are not always drawn.
measurement kind: Ki (µM)

Worked examples, 3 molecules total:
N=C(N)N(CCCCCCN1CCCCC1)Cc1ccc(Cl)cc1 [Example 72, bis-hydrochloride]
0.00501
CN1CCC(CCCNS(=O)(=O)c2ccc3ccccc3c2)CC1
3.16
CN1CCCC1CCCCCNS(=O)(=O)NCc1ccc(Cl)cc1 (centres unmarked)
0.0794

(1) O=S(=O)(NCCCN1CCCC1)NCc1ccc(Cl)cc1
(2) Cc1ccc(S(=O)(=O)NCCC2CCCN2C)cc1 (centres unmarked)
(3) N=C(NCCCC1CCCCC1)NCCCN1CCCC1 [Example 43, bis-hydrochloride]
(4) Cc1ccccc1CNC(=N)NCCCCCN1CCCC1 [Example 48, bis-hydrochloride]
(5) CC(C)CN1CCC[C@H]1CCCNS(=O)(=O)Cc1ccc(Cl)cc1
Could you please sort these 5 entries by Ki from high to low? In your reply, arrange the labels in the requested order. 2, 5, 1, 3, 4

---

- system under test: Histamine H3 receptor (Cavia porcellus, UniProt Q9JI35)
- test summary: Histamine H3 radioligand binding assay, guinea pig cortex ([3H]-R-α-methylhistamine)
- condition info: guinea pig cortex membranes, competition with 1 nM [3H]-R-α-methylhistamine; read-out: pKi (Guinea pig cortex) (converted)
Structures can show the parent of a compound that is named as a salt.
measurement kind: Ki (nM)

(I) CN1CCC[C@@H]1CCCNS(=O)(=O)NCc1ccc(Cl)cc1 [Example 109]
(II) CN1CCC[C@H]1CCCNS(=O)(=O)c1ccc2ccccc2c1 [Example 91]
(III) N=C(NCCCCCN1CCCC1)NCCCC12CC3CC(CC(C3)C1)C2 [Example 38, bis-hydrochloride]
Highest Ki first, then in falling order down to the smallest. In your reply, arrange the labels in the requested order. I, II, III

---

Documented pKi (Guinea pig cortex) across a set of compounds
- system under test: UniProtKB Q9JI35
- test summary: Histamine H3 radioligand binding assay, guinea pig cortex ([3H]-R-α-methylhistamine)
- condition info: guinea pig cortex membranes, competition with 1 nM [3H]-R-α-methylhistamine
Output spec: single numeric token, no unit.

Worked examples, 2 compounds total:
Cl.Cl.N=C(NCCCN1CCCC1)NCc1ccc2ccccc2c1
7.1
Cl.Cl.N=C(NCCCN1CCCC1)NCc1ccc(-c2ccccc2)cc1
6.2

# ---- query compound ----
# return recorded pKi (Guinea pig cortex) for input Cl.Cl.N=C(NCCOCCN1CCCC1)NCC12CC3CC(CC(C3)C1)C2 8.0
